Target: recombinant human PIM1 (Homo sapiens (Human))
Experiment: PIM-1 kinase activity in cell-free in vitro assay
Assay type: biochemical
Conditions: 500 nM compound, cell-free assay; read-out: PIM-1: % inh 500 nM
measure: inhibition at 0.5 µM (%)

CNc1ncc2c(n1)c(NC1CC1)nc1cc(C(=O)O)ccc12 = 52.4

(1) CNc1ncc2c(n1)c(Nc1cccc(Cl)c1)nc1cc(C(=O)O)ccc12
(2) CN1CCN(c2nc3cc(C(=O)NCc4cncn4C)ccc3c3sccc23)CC1
I would appreciate it if you could say which entry, 1 or 2 , has the lower inhibition at 0.5 µM value. Choose, then provide that item's label. 2

(a) COc1ccc(Nc2nc3cc(C(=O)O)ccc3c3cnccc23)cc1OC
(b) Nc1ncc2c(n1)c(Nc1cccc(Cl)c1)nc1cc(C(=O)O)ccc12
I would appreciate it if you could say which entry, a or b , has the lower inhibition at 0.5 µM value. Choose, then provide that item's label. a

----------
Molecular target: recombinant human PIM1 (Homo sapiens (Human), UniProt P11309)
Sequence (P11309 whole entry): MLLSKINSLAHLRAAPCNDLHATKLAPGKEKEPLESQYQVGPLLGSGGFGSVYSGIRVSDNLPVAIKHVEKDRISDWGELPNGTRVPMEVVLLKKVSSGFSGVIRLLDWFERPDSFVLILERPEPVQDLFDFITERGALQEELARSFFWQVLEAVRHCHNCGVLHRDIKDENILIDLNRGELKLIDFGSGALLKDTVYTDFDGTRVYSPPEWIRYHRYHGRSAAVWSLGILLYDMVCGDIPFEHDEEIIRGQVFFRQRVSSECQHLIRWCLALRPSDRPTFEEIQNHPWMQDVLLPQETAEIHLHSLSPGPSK
Test: PIM-1 kinase activity in cell-free in vitro assay
Assay type: biochemical
Details: 500 nM compound, cell-free assay; read-out: PIM-1: % inh 500 nM
measure: inhibition at 0.5 µM (%)

(1) CC(C)(C)OC(=O)N1CCCC1CNc1nc2cc(-c3nnn[nH]3)ccc2c2sccc12 (centres unmarked)
(2) O=C(O)c1ccc2c(c1)nc(Nc1cccc(Cl)c1)c1ncccc12
(3) O=C(O)c1ccc2c(c1)nc(NC1CC1)c1nc(NCc3ccncc3)ncc12
(4) O=C(O)c1ccc2c(c1)nc(Nc1cccc(C(F)(F)F)c1)c1ccncc12
(5) CN1CCN(c2nc3cc(C(=O)NCc4ccncc4)ccc3c3sccc23)CC1
Quick favor: sort the compounds up above by inhibition at 0.5 µM, largest first. Please write the labels in the order that was asked for. 4, 1, 2, 3, 5
(4: 88.8%, 1: 35%, 2: 16.7%, 3: 8.18%, 5: -14.1%)

(a) CN(C)CCNc1nc2cc(C#N)ccc2c2sc(Br)cc12
(b) COC(=O)c1cccc2c1nc(Nc1ccccc1)c1ccncc12 [drawing 2003]
I would appreciate it if you could say which entry, a or b , has the lower inhibition at 0.5 µM value. Choose, then provide that item's label. b
(b: 3.96%, a: 12.1%)

(1) NC(=O)c1ccc2c(c1)nc(Nc1cccc(C(F)(F)F)c1)c1nc(NC3CC3)ncc12
(2) CC(=O)NC1CCN(c2nc3cc(C#N)ccc3c3sccc23)C1 (centres unmarked)
Given 1 and 2 , report the one with the higher recorded inhibition at 0.5 µM. Choose, then provide that item's label. 1

(A) NCc1ccc2c(c1)nc(Nc1cccc(F)c1)c1ccsc12
(B) CN1CCCCC1CNc1nc2cc(-c3nnn[nH]3)ccc2c2ccsc12 (centres unmarked)
Given A and B , report the one with the higher recorded inhibition at 0.5 µM. Choose, then provide that item's label. B

----------
Tested on: Jurkat
Assay: Cell proliferation modulatory activity, Jurkat
Assay type: cell-based
Conditions: Homo sapiens
measure: IC50 (µM)

(I) CCOc1cccc(Nc2ncc3c(n2)c(NC2CC2)nc2cc(C(=O)O)ccc23)c1
(II) O=C(O)c1ccc2c(c1)nc(NC1CC1)c1nc(Nc3cccc(F)c3F)ncc12
Given I and II , report the one with the higher recorded IC50. Choose, then provide that item's label. I
(I: 5.17 µM, II: 2.38 µM)

(A) O=C(O)c1ccc2c(c1)nc(NC1CC1)c1nc(NCC3CC3)ncc12
(B) CCOC(=O)CCNC(=O)c1ccc2c(c1)nc(Nc1cccc(C(F)(F)F)c1)c1nc(NC3CC3)ncc12
I would appreciate it if you could say which entry, A or B , has the lower IC50 value. Choose, then provide that item's label. A
(A: 4.41 µM, B: 7.24 µM)

(a) C#Cc1cccc(Nc2nc3cc(C(=O)O)ccc3c3cnc(NCCOCC)nc23)c1
(b) O=C(O)c1ccc2c(c1)nc(NC1CC1)c1nc(NC3CC3)ncc12 [drawing 1616]
(c) C#Cc1cccc(Nc2nc3cc(C(=O)O)ccc3c3cnc(NCCCOC(C)C)nc23)c1
Order the items by recorded IC50; the first position goes to the largest value. Please write the labels in the order that was asked for. b, c, a
(b: 3.45 µM, c: 2.37 µM, a: 1.13 µM)

(a) Cc1cccc(Nc2nc3cc(C(=O)O)ccc3c3cnccc23)c1
(b) O=C(Nc1ccccc1)c1ccc2c(c1)nc(NC1CC1)c1nc(NC3CC3)ncc12
(c) C#Cc1cccc(Nc2nc3cc(C(=O)NC4CC4)ccc3c3cncnc23)c1
Put these in order: smallest IC50 first, largest last. Please write the labels in the order that was asked for. b, c, a
(b: 0.989 µM, c: 1.54 µM, a: 3.45 µM)

(I) O=C(O)c1ccc2c(c1)nc(Nc1ccccc1)c1nc(NC3CC3)ncc12
(II) COC(CNc1ncc2c(n1)c(Nc1ccc(F)c(Cl)c1)nc1cc(C(=O)O)ccc12)OC
I would appreciate it if you could say which entry, I or II , has the lower IC50 value. Choose, then provide that item's label. II
(II: 1.12 µM, I: 2.42 µM)

----------
Target: Flt3 (Homo sapiens (Human))
Sequence (P36888 27-993): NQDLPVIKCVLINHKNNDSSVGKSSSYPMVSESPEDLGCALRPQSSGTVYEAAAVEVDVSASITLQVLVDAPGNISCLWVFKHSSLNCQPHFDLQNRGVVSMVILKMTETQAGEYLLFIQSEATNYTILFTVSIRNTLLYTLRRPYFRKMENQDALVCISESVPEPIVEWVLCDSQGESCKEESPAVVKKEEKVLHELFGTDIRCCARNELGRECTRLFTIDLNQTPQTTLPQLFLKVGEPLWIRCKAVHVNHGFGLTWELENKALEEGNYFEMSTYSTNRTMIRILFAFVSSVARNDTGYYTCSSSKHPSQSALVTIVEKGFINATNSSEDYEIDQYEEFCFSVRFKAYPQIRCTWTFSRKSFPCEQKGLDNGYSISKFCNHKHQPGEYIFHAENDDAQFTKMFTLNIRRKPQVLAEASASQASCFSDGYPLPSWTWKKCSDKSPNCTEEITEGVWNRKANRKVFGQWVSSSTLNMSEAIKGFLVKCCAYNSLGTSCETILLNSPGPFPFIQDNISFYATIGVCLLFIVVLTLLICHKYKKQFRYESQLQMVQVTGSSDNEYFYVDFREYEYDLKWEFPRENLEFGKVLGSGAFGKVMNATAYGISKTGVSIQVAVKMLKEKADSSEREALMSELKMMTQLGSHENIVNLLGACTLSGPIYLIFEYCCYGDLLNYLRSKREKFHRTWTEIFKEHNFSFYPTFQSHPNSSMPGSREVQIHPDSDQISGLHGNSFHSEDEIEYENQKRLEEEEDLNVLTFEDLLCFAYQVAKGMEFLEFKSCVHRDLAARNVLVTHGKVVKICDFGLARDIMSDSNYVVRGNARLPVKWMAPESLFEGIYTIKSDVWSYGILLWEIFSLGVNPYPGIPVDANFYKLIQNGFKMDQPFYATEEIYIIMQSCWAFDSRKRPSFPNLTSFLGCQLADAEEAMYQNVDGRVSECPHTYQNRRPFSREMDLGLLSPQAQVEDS
Assay: FLT-3 kinase activity in cell free in vitro assay
Assay type: biochemical
Details: cell-free; read-out: FLT-3
pIC50: −log10 of the molar value.
measure: pIC50

FC(F)(F)c1cccc(Nc2nc3cc(-c4nnn[nH]4)ccc3c3sccc23)c1 = < 6.40

API: value(readout=pIC50, system=Flt3 (Homo sapiens (Human))) for record COC(=O)c1ccc2c(c1)nc(Nc1cccc(Cl)c1)c1ccncc12 < 6.40

API: value(readout=pIC50, system=Flt3 (Homo sapiens (Human))) for record Fc1cccc(Nc2nc3cc(-c4nnn[nH]4)ccc3c3sccc23)c1 < 6.40

----------
Molecular target: recombinant human CK2 (Homo sapiens (Human), UniProt P68400)
Sequence (P68400 whole entry): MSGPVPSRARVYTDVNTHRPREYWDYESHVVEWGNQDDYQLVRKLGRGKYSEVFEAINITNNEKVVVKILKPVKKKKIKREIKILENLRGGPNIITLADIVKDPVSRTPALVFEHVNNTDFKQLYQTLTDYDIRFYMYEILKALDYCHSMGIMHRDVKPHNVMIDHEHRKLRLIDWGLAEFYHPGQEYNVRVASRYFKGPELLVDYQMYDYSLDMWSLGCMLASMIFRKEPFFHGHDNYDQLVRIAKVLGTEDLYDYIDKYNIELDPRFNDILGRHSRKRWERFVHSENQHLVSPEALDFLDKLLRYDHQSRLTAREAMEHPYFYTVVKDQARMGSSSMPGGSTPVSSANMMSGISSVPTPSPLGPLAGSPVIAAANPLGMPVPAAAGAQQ
Sequence (P67870 whole entry partner): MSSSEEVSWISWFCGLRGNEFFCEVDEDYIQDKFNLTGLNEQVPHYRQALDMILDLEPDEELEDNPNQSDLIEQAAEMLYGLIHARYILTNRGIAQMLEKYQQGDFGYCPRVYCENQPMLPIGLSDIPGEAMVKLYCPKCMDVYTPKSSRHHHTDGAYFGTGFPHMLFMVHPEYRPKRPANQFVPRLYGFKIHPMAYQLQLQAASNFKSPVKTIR
Test: CK2 assay (cell-free, 33P-ATP filter plate)
Assay type: biochemical
Details: 500 nM compound, cell-free assay; read-out: CK2: % inh 500 nM
measure: inhibition at 0.5 µM (%)

Example compounds with recorded inhibition at 0.5 µM:
N#Cc1ccc2c(c1)nc(NCC(O)c1ccccc1)c1ccsc12 (centres unmarked) = -9.58
CCN1CCCC1CNc1nc2cc(C#N)ccc2c2ccsc12 (centres unmarked) = -29.4
N#Cc1ccc2c(c1)nc(Nc1cccc(Cl)c1)c1cscc12 = -9.4
Cc1cc(Nc2nc3cc(C(=O)O)ccc3c3cnccc23)c2ccccc2n1 = 96.6
O=C(O)c1ccc2c(c1)nc(Nc1ccc3c(c1)OCO3)c1ccncc12 = 101

(1) Cc1cc(NC(=O)NCc2ccc3c(c2)nc(Nc2cccc(F)c2)c2ccsc23)c(C(F)(F)F)o1
(2) FC(F)(F)CNc1nc2cc(-c3nnn[nH]3)ccc2c2sccc12
(3) CCN1CCCC1CNc1nc2cc(C(=O)O)ccc2c2sccc12 (centres unmarked)
Put these in order: smallest inhibition at 0.5 µM first, largest last. Please write the labels in the order that was asked for. 1, 2, 3
(1: -9.99%, 2: 49%, 3: 92.8%)

----------
Attribute: IC50
Test system: HCT-116 human colorectal carcinoma cells
Assay: Cell-proliferation assay using Alamar Blue dye;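 further: cells exposed to compound for about 4 days, then Alamar Blue added and dye fluorescence read after about 4 h, compared with medium-only control wells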
Assay type: cell-based
Settings: Homo sapiens, HCT-116, read-out: HCT-116 (uM), cell proliferation modulatory activity, HCT-116, second column

Example molecules with recorded IC50:
O=C(O)c1ccc2c(c1)nc(Nc1cccc(Oc3ccccc3)c1)c1ccsc12 = > 10 µM
COC(=O)c1ccc2c(c1)nc(Nc1ccc(F)c(Cl)c1)c1ccncc12 = 3.94 µM
O=C(O)c1ccc2c(c1)nc(Nc1cc(F)cc(Cl)c1)c1ccsc12 = > 10 µM
O=C(O)c1ccc2c(c1)nc(Nc1cc(F)cc(F)c1)c1ccsc12 = > 10 µM
O=C(O)c1ccc2c(c1)nc(Nc1ccc(Cl)cc1)c1ccncc12 = 6.72 µM
CCc1cccc(Nc2nc3cc(-c4nnn[nH]4)ccc3c3sccc23)c1 = > 10 µM
O=C(O)c1ccc2c(c1)nc(Nc1cccc(F)c1F)c1ccsc12 = > 10 µM
O=C(O)c1ccc2c(c1)nc(Nc1ccc3[nH]ccc3c1)c1ccsc12 = > 10 µM

Would you kindly share the measured IC50 for O=C(O)c1ccc2c(c1)nc(Nc1cccc(F)c1)c1ncncc12 ? 7.1 µM

Would you kindly share the measured IC50 for O=C(O)c1ccc2c(c1)nc(Nc1ccc3cc[nH]c3c1)c1ccsc12 ? > 10 µM

Would you kindly share the measured IC50 for O=C(O)c1ccc2c(c1)nc(Nc1cccc(Cl)c1F)c1ccsc12 ? > 10 µM

Would you kindly share the measured IC50 for O=C(c1cccc(Nc2nc3cc(-c4nnn[nH]4)ccc3c3sccc23)c1)N1CCOCC1 ? > 10 µM

Would you kindly share the measured IC50 for CN(C)CCNC(=O)c1cccc(Nc2nc3cc(C(=O)O)ccc3c3sccc23)c1 ? > 10 µM

Would you kindly share the measured IC50 for O=C(O)c1ccc2c(c1)nc(Nc1cccc(C(=O)NC3CC3)c1)c1ccsc12 ? > 10 µM

Would you kindly share the measured IC50 for O=C(O)c1ccc2c(c1)nc(NCCCc1ccccc1)c1ccncc12 [drawing 1561] ? > 10 µM
